The following binders are listed with their measured OD450 at 0.001 nM values.
Biological target: T1, human MSLN-R3-3 polypeptide (human)
T1 construct: also called human MSLN-R3-3 protein; hMSLN-R3-3
Assay: ELISA, coated MSLN-R3-3;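 further: chimeric antibodies in serial dilution bound to plate-coated antigen for 2 h at 37 °C, with a negative control antibody alongside, and TMB colour development stopped with HCl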
Use OD450 as the unit, but write only the number.

* S009-F1.57.1 (antibody, human IgG1, kappa, V domains shown, Human-murine chimeric antibody, human IgG1/kappa constant regions) VH: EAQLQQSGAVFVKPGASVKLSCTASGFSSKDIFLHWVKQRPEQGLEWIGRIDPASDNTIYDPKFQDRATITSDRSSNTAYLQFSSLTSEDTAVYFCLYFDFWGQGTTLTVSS VL: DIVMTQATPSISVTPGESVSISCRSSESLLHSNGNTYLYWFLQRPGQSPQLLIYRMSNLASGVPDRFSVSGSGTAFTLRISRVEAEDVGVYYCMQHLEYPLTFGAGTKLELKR | 0.07

INPUT: Recorded OD450 at 0.001 nM of S009-F1.2.12 (antibody, human IgG1, kappa, V domains shown) VH: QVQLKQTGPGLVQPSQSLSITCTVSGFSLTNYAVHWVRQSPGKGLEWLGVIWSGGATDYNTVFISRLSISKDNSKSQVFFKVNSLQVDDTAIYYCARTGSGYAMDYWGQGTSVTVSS VL: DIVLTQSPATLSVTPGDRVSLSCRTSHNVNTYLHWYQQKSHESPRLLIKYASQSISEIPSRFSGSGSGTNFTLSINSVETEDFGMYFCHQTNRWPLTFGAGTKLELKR , please.
OUTPUT: 0.08

INPUT: Further, for S009-F1.62.9 (antibody, human IgG1, kappa, V domains shown, Human-murine chimeric antibody, human IgG1/kappa constant regions) VH: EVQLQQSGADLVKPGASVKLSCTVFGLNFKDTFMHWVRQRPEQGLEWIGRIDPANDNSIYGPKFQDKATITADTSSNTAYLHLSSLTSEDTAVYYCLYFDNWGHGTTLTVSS VL: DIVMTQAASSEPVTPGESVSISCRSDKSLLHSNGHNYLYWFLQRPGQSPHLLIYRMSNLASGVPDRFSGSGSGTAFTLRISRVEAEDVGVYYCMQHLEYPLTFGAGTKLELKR ?
OUTPUT: 0.07
